experiment_notes: NCI Yeast Anticancer Drug Screen. Data for the rad50EPP+ strain (AID 151)
details: S. cerevisiae rad50 mutant strain, at 100.0 µM, active compounds read high
Compounds without any hit were thinned out: in the full panel of roughly 79,000, 15% have a hit.
Reported growth inhibition maps to class as: lower segment (below 30%), middle segment (30% to below 70%), upper segment (70% or more)

INSERT INTO results (compound, assigned_class) VALUES
  ('CCOC(=O)C1N=[N+](c2ccccc2)C(=O)/C1=C\n1c(=S)[nH]c2ccc([N+](=O)[O-])cc21 (centres undefined)', 'lower segment'),
  ('CNCCCNc1c2ccccc2nc2cccc([N+](=O)[O-])c12', 'upper segment'),
  ('CCN(CC)CCOc1cc(C)c2cc(Cc3ccccc3)ccc2n1', 'middle segment'),
  ('O=C(NNc1ccccc1)c1ccc(Cl)c(Cl)c1', 'upper segment'),
  ('O=[N+]([O-])c1cc(S(=O)(=O)Nc2ccccc2)ccc1Nc1ccccc1', 'lower segment');

*Q* Looking at COC1=C(N)C(=O)c2nc(-c3nc(C(=O)O)c(C)c(-c4ccc(OC)c(OC)c4O)c3N)ccc2C1=O , which class would you pick?
*A* upper segment

*Q* Next compound up: CC12C(=O)OC(=O)C(c3ccccc31)c1ccccc12
*A* lower segment

*Q* Request: Cc1cc(C(C)(C)C)c(OCCCN2CCOCC2)c(C(C)(C)C)c1
*A* middle segment

*Q* Thanks! And CC(C)(CCCCC(C)(C)[N+](C)(C)C)[N+](C)(C)C ?
*A* lower segment

*Q* Then this compound: CCC(=O)c1cc(C(=O)C(=S)SC)cc(C(=O)C(=S)SC)c1
*A* upper segment

*Q* Now give it for CC(C)(C)C1=CC(=CC=C2C=CN(CCCCCCCCCCCO)C=C2)C=C(C(C)(C)C)C1=O too.
*A* upper segment

*Q* Then CN1CCN(C(=O)/C=C/C(=O)c2ccccc2)CC1 ?
*A* middle segment

*Q* Now this one: O=C1OC(OC/C(Br)=C(\Br)COC2OC(=O)C(Cl)=C2Cl)C(Cl)=C1Cl (centres undefined)
*A* lower segment

*Q* Would you mind doing Cc1cc(=O)oc2c(C)c3occc(=O)c3cc12 as well?
*A* middle segment

*Q* And the next one, Cc1ccc([N+]2=NC(c3ccccc3)=NN(c3ccccc3)C2)cc1 ?
*A* middle segment

*Q* Input O=[N+]([O-])c1cccc2nc3ccccc3c(NCCC[N+]3([O-])CCCCC3)c12
*A* upper segment

*Q* Try the compound O=C1OC(C2=CC(=O)c3ccccc3C2=O)C(Cl)=C1Cl (centres undefined)
*A* upper segment

*Q* Entry to check: Cc1cccc[n+]1C1CCc2c(ccc3ccccc23)C1=O (centres undefined)
*A* middle segment

*Q* And for O=c1ccc2ccccc2c2ccccc12 ?
*A* upper segment
